Please go through the items and note down their half-life.
test: The half life period in marmosets; type: ADME; conditions: callithrix, in vivo
Write the answer as a number in h, unit excluded.

Quick one: half-life for CC(C)(O/N=C(\C(=O)N[C@@H]1C(=O)N2C(C(=O)O)=C(CNC(=O)c3cc(O)c(O)c(Cl)c3)CSC12)c1csc(N)n1)C(=O)O (some centres not stated) ?
4.57

Quick one: half-life for CC(C)(O/N=C(\C(=O)N[C@@H]1C(=O)N2C(C(=O)O)=C(CNC(=O)c3ccc(O)c(O)c3)CSC12)c1csc(N)n1)C(=O)O (some centres not stated) ?
1.25

Quick one: half-life for CCN(CC1=C(C(=O)O)N2C(=O)[C@@H](NC(=O)/C(=N\OC(C)(C)C(=O)O)c3csc(N)n3)C2SC1)C(=O)c1cc(O)c(O)c(Cl)c1 (some centres not stated) ?
0.87

Quick one: half-life for CCO/N=C(\C(=O)N[C@@H]1C(=O)N2C(C(=O)O)=C(CNC(=O)c3cc(O)c(O)c(Br)c3)CSC12)c1csc(N)n1 (some centres not stated) ?
0.67

Quick one: half-life for CC(C)(O/N=C(\C(=O)N[C@@H]1C(=O)N2C(C(=O)O)=C(CCOC(=O)c3cc(O)c(O)c(Br)c3)CSC12)c1csc(N)n1)C(=O)O (some centres not stated) ?
1.68

Quick one: half-life for CC(C)(O/N=C(\C(=O)N[C@@H]1C(=O)N2C(C(=O)O)=C(CNC(=O)c3cc(Cl)c(O)c(O)c3Cl)CSC12)c1csc(N)n1)C(=O)O (some centres not stated) ?
8.22

Quick one: half-life for CCn1cc(C(=O)NCC2=C(C(=O)O)N3C(=O)[C@@H](NC(=O)/C(=N\OC(C)(C)C(=O)O)c4csc(N)n4)C3SC2)c(=O)c2cc(O)c(O)cc21 (some centres not stated) ?
3.47

====

test system: Pseudomonas aeruginosa; assay: microbe, parasite or virus in culture
Description: Minimum inhibitory concentration in Pseudomonas aeruginosa,799WT parent organism
Please go through the items and note down their MIC.
Write the answer as a number in ng/mL, unit excluded.

Request body: readout MIC, system Pseudomonas aeruginosa, query Nc1nc(/C(=N/OC2(C(=O)O)CCCC2)C(=O)N[C@@H]2C(=O)N3C(C(=O)O)=C(CNC(=O)c4cc(O)c(O)c(Br)c4)CSC23)cs1 (stereo partly drawn) . Return the value.
8

Request body: readout MIC, system Pseudomonas aeruginosa, query CC(C)(O/N=C(\C(=O)N[C@@H]1C(=O)N2C(C(=O)O)=C(CCc3ccc(O)c(O)c3)CSC12)c1csc(N)n1)C(=O)O (stereo partly drawn) . Return the value.
60

Request body: readout MIC, system Pseudomonas aeruginosa, query CCOC(=O)c1nc2cc(O)c(O)cc2nc1C(=O)NCC1=C(C(=O)O)N2C(=O)[C@@H](NC(=O)/C(=N\OC(C)(C)C(=O)O)c3csc(N)n3)C2SC1 (stereo partly drawn) . Return the value.
8

Request body: readout MIC, system Pseudomonas aeruginosa, query CC(C)(O/N=C(\C(=O)N[C@@H]1C(=O)N2C(C(=O)O)=C(CNC(=O)c3ccc4cc(O)c(O)cc4c3)CSC12)c1csc(N)n1)C(=O)O (stereo partly drawn) . Return the value.
30

Request body: readout MIC, system Pseudomonas aeruginosa, query CC(C)(O/N=C(\C(=O)N[C@@H]1C(=O)N2C(C(=O)O)=C(CCCC(=O)c3cc(O)c(O)c(Cl)c3)CSC12)c1csc(N)n1)C(=O)O (stereo partly drawn) . Return the value.
8

Request body: readout MIC, system Pseudomonas aeruginosa, query CCO/N=C(\C(=O)N[C@@H]1C(=O)N2C(C(=O)O)=C(CNC(=O)c3ccc(O)c(O)c3)CSC12)c1csc(N)n1 (stereo partly drawn) . Return the value.
60

Request body: readout MIC, system Pseudomonas aeruginosa, query CCOC(=O)C(CC1=C(C(=O)O)N2C(=O)[C@@H](NC(=O)/C(=N\OC(C)(C)C(=O)O)c3csc(N)n3)C2SC1)C(=O)c1cc(O)c(O)c(Br)c1 (stereo partly drawn) . Return the value.
8

Request body: readout MIC, system Pseudomonas aeruginosa, query CC(C)(O/N=C(\C(=O)N[C@@H]1C(=O)N2C(C(=O)O)=C(CNS(=O)(=O)c3ccc(O)c(O)c3)CSC12)c1csc(N)n1)C(=O)O (stereo partly drawn) . Return the value.
8

Request body: readout MIC, system Pseudomonas aeruginosa, query CCN(CC1=C(C(=O)O)N2C(=O)[C@@H](NC(=O)/C(=N\OC(C)(C)C(=O)O)c3csc(N)n3)C2SC1)C(=O)c1cc(O)c(O)c(C#N)c1 (stereo partly drawn) . Return the value.
8

Request body: readout MIC, system Pseudomonas aeruginosa, query CCN(CC1=C(C(=O)O)N2C(=O)[C@@H](NC(=O)/C(=N\OC(C)(C)C(=O)O)c3csc(N)n3)C2SC1)C(=O)c1cc(O)c(O)c(Cl)c1 (stereo partly drawn) . Return the value.
8

Request body: readout MIC, system Pseudomonas aeruginosa, query CC(C)(O/N=C(\C(=O)N[C@@H]1C(=O)N2C(C(=O)O)=C(CCNC(=O)CNC(=O)c3cc(O)c(O)c(Br)c3)CSC12)c1csc(N)n1)C(=O)O (stereo partly drawn) . Return the value.
8

Request body: readout MIC, system Pseudomonas aeruginosa, query CC(C)(O/N=C(\C(=O)N[C@@H]1C(=O)N2C(C(=O)O)=C(CNC(=O)c3cc(Cl)c(O)c(O)c3Cl)CSC12)c1csc(N)n1)C(=O)O (stereo partly drawn) . Return the value.
8
